Tested on: NCI-H460 lung
Test: NCI tumour cell line growth inhibition, 48 h
quantity-name: TGI

{"columns": ["compound", "TGI"],
 "data": [
  ["CCOC(=O)/C(=C\\NC(C)(C)CO)c1nc2ccccc2[nH]1", "> 100 µM"],
  ["C=C(Cl)C(C)(Cl)CCC(Cl)C(C)C (stereo not given)", "> 100 µM"],
  ["COc1ccc2c(c1)[n+]([O-])c(/C(C)=N/NC(=O)c1ccccc1O)c(C)[n+]2[O-]", "> 100 µM"],
  ["CC(C)(C)n1c(=O)n2n(c1=O)C1c3cccc4cccc(c34)C2C2c3cccc4cccc(c34)C1n1c(=O)n(C(C)(C)C)c(=O)n12", "> 100 µM"],
  ["Cc1cc2c(cc1Cl)SC(c1ccccc1O)NS2(=O)=O (stereo not given)", "> 100 µM"]
]}

Please state, for each entry, its recorded TGI.
1. COC(=O)[C@@H](C)C[C@H](Cc1ccccc1)NC(=O)c1csc([C@@H](C[C@H](C(C)C)N(C)C(=O)[C@@H](NC(=O)[C@H]2CCCN2C)C2CC2)OC(C)=O)n1
2. CC(C(=O)n1ccnc1)N1c2ccccc2Sc2ccccc21 (stereo not given)
3. COc1cc(C2CC(=O)Nc3c2c(C)nn3-c2nc3ccccc3[nH]2)cc(OC)c1O (stereo not given)
4. COc1cccc(C2SCc3nc4ccccc4n32)c1 (stereo not given)
5. CCCC(=O)OC[n+]1ccc(-c2c(COC(=O)NC(C)C)c(COC(=O)NC(C)C)c3n2CCC3)cc1
6. O=S(=O)(CCC[C@H]1[C@@H](CCOCc2ccccc2)C2CCCN1O2)c1ccccc1 (stereo not given in full)
7. CC(=O)N[C@@H](Cc1ccc(OP(=O)(O)O)cc1)C(=O)N[C@H]1CCC(=O)N2CCC[C@@H](C(=O)NCc3ccccc3)N2C1=O
8. COC(=O)c1ccc2c(c1)sc1nc(-c3ccc(OC)cc3)cn12

*A*
> 25 µM
> 100 µM
> 35.1 µM
> 100 µM
> 100 µM
> 100 µM
> 25 µM
> 100 µM

I have 6 compounds here; please give me TGI for each one.
1. Nc1cc(Cl)ccc1SSc1ccc(Cl)cc1N
2. CC(=O)NC1COC(COC(=O)CCCCCCCCCCNC(=O)c2ccc([N+](=O)[O-])c3c(=O)c4ccccc4[nH]c23)C(O)C1OC(C)C(=O)NC(C(=O)NC(CCC(N)=O)C(=O)OCc1ccccc1)C(C)C (stereo not given)
3. Cn1c(=O)ccc2c(=O)c3ccccc3oc21
4. Cc1ccc(S(=O)(=O)OCCOCCOCCOCCOCCOS(=O)(=O)c2ccc(C)cc2)cc1
5. COc1ccc(/C=C/C(=O)c2sc(-c3cccnc3)nc2C)cc1
6. CNC(=O)c1cccc(C#Cc2cncnc2Nc2ccc(OCc3cccc(F)c3)c(Cl)c2)c1

*A*
1: 31.6 µM; 2: 39.7 µM; 3: > 100 µM; 4: > 100 µM; 5: > 100 µM; 6: 12.9 µM

What the record says about NC(=O)CCSC(CC(=O)c1ccc(Cl)cc1)c1ccc(Cl)cc1 (stereo not given) : TGI is > 100 µM
